Entry source: PubChem BioAssay AID1963962

Test system: 967376-340-R-J2-PDC multicell spheroid viability
testDetails: Anticancer human tumor 967376-340-R-J2-PDC patient-derived colon adenocarcinoma cell line growth inhibition [PI3K]
measurementSetup: curve of first compound; second compound 0.01 µM
pIC50: −log10 of the molar value.
quantityKind: pIC50

Requested field: pIC50. Item: CC1(C)CCC(CN2CCN(c3ccc(C(=O)NS(=O)(=O)c4ccc(NCC5CCOCC5)c([N+](=O)[O-])c4)c(Oc4cnc5[nH]ccc5c4)c3)CC2)=C(c2ccc(Cl)cc2)C1 + COc1c(OCCCN2CCOCC2)ccc2c3n(c(=NC(=O)c4cnc(N)nc4)nc12)CCN3
< 5.00

Fill in: pIC50 of CCCS(=O)(=O)Nc1ccc(F)c(C(=O)c2c[nH]c3ncc(-c4ccc(Cl)cc4)cc23)c1F + COc1c(OCCCN2CCOCC2)ccc2c3n(c(=NC(=O)c4cnc(N)nc4)nc12)CCN3 is ___
< 5.00

Any idea what its pIC50 is? The compound is CC1(C)CCC(Nc2ncc(C(F)(F)F)c(-c3c[nH]c4c(P(C)(C)=O)c(C#N)ccc34)n2)CN1 (stereo unspecified) + COc1c(OCCCN2CCOCC2)ccc2c3n(c(=NC(=O)c4cnc(N)nc4)nc12)CCN3
5.02

Using the record for CC(C)n1nc(-c2ccc3oc(N)nc3c2)c2c(N)ncnc21 + COc1c(OCCCN2CCOCC2)ccc2c3n(c(=NC(=O)c4cnc(N)nc4)nc12)CCN3 , report its pIC50.
7.01

Which pIC50 is listed for Cn1ncc(Cl)c1-c1cc(C(=O)NC(CN)Cc2cccc(F)c2)sc1Cl (stereo unspecified) + CC(Nc1ccc2c(c1)OCCn1cc(N3C(=O)OCC3C(F)F)nc1-2)C(N)=O ?
< 5.00

Requested field: pIC50. Item: CNC(=O)c1ccc(N2C(=S)N(c3ccc(C#N)c(C(F)(F)F)c3)C(=O)C2(C)C)cc1F + COc1c(OCCCN2CCOCC2)ccc2c3n(c(=NC(=O)c4cnc(N)nc4)nc12)CCN3
< 5.00

Find the recorded pIC50 belonging to Cn1cnc2c(F)c(Nc3ccc(Br)cc3Cl)c(C(=O)NOCCO)cc21 + CC(Nc1ccc2c(c1)OCCn1cc(N3C(=O)OCC3C(F)F)nc1-2)C(N)=O and report it.
6.25

Report pIC50 for Cn1cnc2c(F)c(Nc3ccc(Br)cc3Cl)c(C(=O)NOCCO)cc21 + COc1c(OCCCN2CCOCC2)ccc2c3n(c(=NC(=O)c4cnc(N)nc4)nc12)CCN3 please.
5.68

Record pIC50 per entry; entries follow.
1. Cn1nccc1Nc1nccc(-c2ccn(C(CO)c3ccc(Cl)c(F)c3)c(=O)c2)n1 (stereo unspecified) + CC(Nc1ccc2c(c1)OCCn1cc(N3C(=O)OCC3C(F)F)nc1-2)C(N)=O
2. Cn1nccc1Nc1nccc(-c2ccn(C(CO)c3ccc(Cl)c(F)c3)c(=O)c2)n1 (stereo unspecified) + COc1c(OCCCN2CCOCC2)ccc2c3n(c(=NC(=O)c4cnc(N)nc4)nc12)CCN3
3. Cn1ncnc1[C@H]1c2n[nH]c(=O)c3cc(F)cc(c23)N[C@@H]1c1ccc(F)cc1 + COc1c(OCCCN2CCOCC2)ccc2c3n(c(=NC(=O)c4cnc(N)nc4)nc12)CCN3

< 5.00
< 5.00
< 7.00

###

Tested on: 967376-340-R-J2-PDC multicell spheroid viability
testDetails: Anticancer human tumor 967376-340-R-J2-PDC cell line growth inhibition [PI3K];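 also: spheroids exposed to agents for 7 days before read-out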;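 as to viability, T/C: luminescence used as surrogate of cell viability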
measurementSetup: second compound 0.00316 µM; first compound 0.316 µM; stronger effect = lower value
quantityKind: viability, T/C

Each compound below has a reported value. Please supply its viability, T/C.
1. C[C@@H](NC(=O)c1ncnc(N)c1Cl)c1ncc(C(=O)Nc2cc(C(F)(F)F)c(Cl)cn2)s1 + CC(Nc1ccc2c(c1)OCCn1cc(N3C(=O)OCC3C(F)F)nc1-2)C(N)=O
2. CC(C)NCC(C(=O)N1CCN(c2ncnc3c2C(C)CC3O)CC1)c1ccc(Cl)cc1 (stereo not drawn) + COc1c(OCCCN2CCOCC2)ccc2c3n(c(=NC(=O)c4cnc(N)nc4)nc12)CCN3
3. CC(C)NCC(C(=O)N1CCN(c2ncnc3c2C(C)CC3O)CC1)c1ccc(Cl)cc1 (stereo not drawn) + CC(Nc1ccc2c(c1)OCCn1cc(N3C(=O)OCC3C(F)F)nc1-2)C(N)=O

1: 73.3%; 2: 78.2%; 3: 71.2%
